Numbers sourced from BindingDB's records for doi:10.1021/acs.jmedchem.8b01602.

assay: Non-competitive inhibition of human GAT1 expressed in COS cells assessed as reduction in [2H6]GABA uptake by measuring [2H6]GABA Kd(app) at 1 uM preincubated for 25 mins followed by [2H6]GABA addition and measured after 4 mins by liquid scintillation counting method (Rvb = 28.3 +/- 1.5 nM)
Each entry below carries its reported pKd.
Keep it numeric: pKd is minus log10 of the concentration in mol/L.

Report pKd for O=C(O)[C@H]1CNC[C@@H](CN/N=C/c2ccc(-c3cc(C(F)(F)F)cc(C(F)(F)F)c3)o2)C1 please.
7.24

Kindly consider the entry below.
Quick one: pKd of O=C(O)[C@H]1CNC[C@@H](CN/N=C/c2ccc(-c3cccc4ccccc34)o2)C1 ?
7.25

* * *

Readings of pKd for the listed compounds
test: Non-competitive inhibition of human GAT1 expressed in COS cells assessed as reduction in [2H6]GABA uptake by measuring [2H6]GABA Kd(app) at 10 uM preincubated for 25 mins followed by [2H6]GABA addition and measured after 4 mins by liquid scintillation counting method (Rvb = 28.3 +/- 1.5 nM)
Just so you know, pKd here is -log10 of the concentration in molar units; reply with that number alone.

I am curious: what pKd value has been reported for O=C(O)[C@H]1CNC[C@@H](CN/N=C/c2ccc(-c3cccc4ccccc34)o2)C1 ?
6.95

Next:
Query (compound): O=C(O)[C@H]1CNC[C@@H](CN/N=C/c2ccc(-c3cc(C(F)(F)F)cc(C(F)(F)F)c3)o2)C1 ; field requested: pKd
6.81
